- test: proliferation blockers of H69AR lung cancer cells, primary screen, cell-based, human, 86K library (AID 598);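 note: multidrug resistant small cell line overexpressing MRP-1 efflux transporter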
- runParameters: H69AR lung tumor viability, ATP luminescence, 72 h; at 10 µM; stronger effect = lower value
About 5,100 (6%) of roughly 85,000 compounds were called active. What follows is part of a selection rich in actives, with near analogues and random picks from the rest.
Decide using viability alone. Strictly below 90%: Y. Equal to or above 90%: N.

Request: For this compound, is viability lower than 90%? COc1ccc(C2C(C#N)=C(/N=C/N3CCOCC3)OC3=C2C(=O)CC(C)(C)C3)cc1OC (centres undefined)
Result: N

Request: # strict comparison: is reported viability < 90%? input = COc1ccc(CCn2c(-c3ccco3)nc3nc4ccccc4nc32)cc1OC
Result: Y

Request: State whether 90% exceeds viability recorded for Cc1oc(-c2ccccc2Cl)[n+]([O-])c1C .
Result: Y

Request: Problem: For the compound CCOC(=O)N1CCN(C(=O)COc2ccc(Br)cc2)CC1 , is viability under 90%?
Result: N

Request: Dear reviewer, please state whether CCOC(=O)N1CCN(C(=O)c2ccc3c(c2)N(Cc2ccc(C)cc2)CCS3)CC1 has viability strictly beneath 90%.
Result: Y

Request: Strictly below 90% in viability? CCOC(=O)C1CCN(C(=O)Nc2ccc(Cl)cc2)CC1
Result: N

Request: Is 90% strictly greater than the compound's reported viability? compound: O=C(Nc1nncs1)c1cccc(S(=O)(=O)N2CCCCC2)c1
Result: N

Request: Below 90% on viability? Entry CCOc1ccc(NC(=O)CN(C)CC(=O)Nc2cccc(Cl)c2C)cc1OCC
Result: Y

Request: Report whether reported viability is lower than 90% (strictly) for C=C(Cl)COC(=O)C1C2C=CC(C2)C1C(=O)O (centres undefined)
Result: N
